Origin of measurements: ChEMBL document CHEMBL3885881

Below, each entry is listed with its recorded ALANINE AMINOTRANSFERASE.
Species on record: Rattus norvegicus
Assay: DrugMatrix - Regimen: Daily Repeat
Type: toxicity, organism-based, Sprague-Dawley
Set-up: regimen Daily Repeat, gender Male, age 6-8 weeks
Settings: in vivo, po, 0 mg/kg, 72 h, tissue Plasma, route oral GAVAGE, dose level Control, time 3 day, vehicle .5 % CMC

# Compound, ALANINE AMINOTRANSFERASE
data = [
    ("C[C@]12CC[C@@H]3c4ccc(O)cc4CC[C@H]3[C@@H]1C[C@@H](O)[C@@H]2O", "49.67 u/L"),
    ("CN1CCN(C2=Nc3cc(Cl)ccc3Nc3ccccc32)CC1", "40.17 u/L"),
    ("CCC1=C(C)CN(C(=O)NCCc2ccc(S(=O)(=O)NC(=O)N[C@H]3CC[C@H](C)CC3)cc2)C1=O [GLIMEPIRIDE]", "55 u/L"),
    ("CCn1cc(C(=O)O)c(=O)c2cc(F)c(N3CCNC(C)C3)c(F)c21 (configuration not stated)", "39.33 u/L"),
    ("C[C@@H]1O[C@@H](O[C@H]2C[C@@H](O)[C@]3(CO)[C@H]4[C@H](O)C[C@]5(C)[C@@H](C6=CC(=O)OC6)CC[C@]5(O)[C@@H]4CC[C@]3(O)C2)[C@H](O)[C@H](O)[C@H]1O", "52 u/L"),
    ("COc1cc(OC)c(C(=O)CCCN2CCCC2)c(OC)c1", "53 u/L"),
    ("CN1C(=O)CN=C(c2ccccc2)c2cc([N+](=O)[O-])ccc21", "41 u/L"),
    ("COc1ccccc1[N+](=O)[O-]", "55.67 u/L"),
    ("C#C[C@]1(O)CC[C@H]2[C@@H]3CCC4=CC(=O)CC[C@]4(C)[C@H]3CC[C@@]21C", "42.33 u/L"),
    ("CCCNC(=O)NS(=O)(=O)c1ccc(Cl)cc1 [CHLORPROPAMIDE]", "40.17 u/L"),
    ("COc1ccc2c(c1OC)C(=O)O[C@@H]2[C@H]1c2c(cc3c(c2OC)OCO3)CCN1C", "42.33 u/L"),
    ("CCOc1nc2cccc(C(=O)O)c2n1Cc1ccc(-c2ccccc2-c2nnn[nH]2)cc1", "57.17 u/L"),
    ("CCCCC1=NC2(CCCC2)C(=O)N1Cc1ccc(-c2ccccc2-c2nnn[nH]2)cc1", "49.17 u/L"),
    ("C[C@@](Cc1ccc(O)c(O)c1)(NN)C(=O)O.O", "43.83 u/L"),
    ("CN(C)C(=O)C(CCN1CCC(O)(c2ccc(Cl)cc2)CC1)(c1ccccc1)c1ccccc1 [LOPERAMIDE]", "55 u/L"),
    ("NC(=O)N1c2ccccc2CC(=O)c2ccccc21 [OXCARBAZEPINE]", "49.17 u/L"),
    ("C[C@H]1[C@H](NC(=O)/C(=N\\OC(C)(C)C(=O)O)c2csc(N)n2)C(=O)N1S(=O)(=O)O", "43.83 u/L"),
]

----------
Organism: Rattus norvegicus
Assay: DrugMatrix - Regimen: Daily Repeat
Format: toxicity, organism-based, Sprague-Dawley
Design: regimen Daily Repeat, gender Male, age 6-8 weeks
Conditions: in vivo, po, 0 mg/kg, 72 h, tissue Plasma, route oral GAVAGE, dose level Control, time 3 day, […]
Listed below: LACTATE DEHYDROGENASE values for each entry.

# Compound, LACTATE DEHYDROGENASE / u/L
data = [
    ("c1ccoc1", 165.17),
    ("Cc1ccc(C)c(OCCCC(C)(C)C(=O)O)c1", 75.83),
    ("ClC(Cl)(Cl)Cl [CARBON TETRACHLORIDE]", 107.5),
    ("CS(=O)(=O)Nc1ccc([N+](=O)[O-])cc1Oc1ccccc1 [NIMESULIDE]", 115),
    ("CCCCC(=O)N(Cc1ccc(-c2ccccc2-c2nnn[nH]2)cc1)[C@H](C(=O)O)C(C)C", 101.83),
    ("CC(=O)Oc1ccccc1C(=O)O", 85),
    ("CCc1ccc(CCOc2ccc(CC3SC(=O)NC3=O)cc2)nc1 (centres undefined)", 136.67),
    ("CC(C)c1c(C(=O)Nc2ccccc2)c(-c2ccccc2)c(-c2ccc(F)cc2)n1CC[C@@H](O)C[C@@H](O)CC(=O)O", 81.17),
    ("O=c1c(-c2ccc(O)cc2)coc2cc(O)cc(O)c12", 81.17),
]
